Below, each entry is listed with its recorded pEC50.
target: Human STING (Homo sapiens, UniProt Q86WV6, G230A/H232R/R293Q/R71H); assay: Activation of human STING signaling in permeabilized THP1 cells, IRF3 induction; settings: THP1-Dual cells permeabilized with digitonin buffer 30 minutes on ice, then 24 h in RPMI media
Sequence (Q86WV6 whole entry R71H/G230A/H232R/R293Q): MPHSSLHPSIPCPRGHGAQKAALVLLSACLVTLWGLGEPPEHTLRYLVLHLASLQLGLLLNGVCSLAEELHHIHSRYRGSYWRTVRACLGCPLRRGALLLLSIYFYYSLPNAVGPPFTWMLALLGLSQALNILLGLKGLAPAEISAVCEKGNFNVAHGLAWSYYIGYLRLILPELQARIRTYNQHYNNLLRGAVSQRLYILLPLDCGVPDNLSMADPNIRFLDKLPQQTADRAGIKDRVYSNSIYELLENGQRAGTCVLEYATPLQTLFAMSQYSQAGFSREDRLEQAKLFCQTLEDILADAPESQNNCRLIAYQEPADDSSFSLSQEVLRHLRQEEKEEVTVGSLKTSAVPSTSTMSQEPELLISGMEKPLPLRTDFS
pEC50: −log10 of the molar value.

structureSmiles: CCc1nc(C)oc1C(=O)Nc1nc2cc(C(N)=O)cc(OC)c2n1C/C=C/Cn1c(NC(=O)c2oc(C)nc2CC)nc2cc(C(N)=O)cc(OCCCO)c21
valueReported: > 6.00
--
structureSmiles: CCn1nc(C)cc1C(=O)Nc1nc2cc(CN(C)C)cnc2n1C/C=C/Cn1c(NC(=O)c2cc(C)nn2CC)nc2cc(C(N)=O)cc(OCCCO)c21
valueReported: > 6.00
--
structureSmiles: CCc1nc(C)oc1C(=O)Nc1nc2cc(C(N)=O)cnc2n1C/C=C/Cn1c(NC(=O)c2sc(C)nc2CC)nc2cc(C(N)=O)cc(OCCCO)c21
valueReported: > 6.00
--
structureSmiles: CCn1nc(C)cc1C(=O)/N=c1\sc2cc(C(N)=O)cc(OC)c2n1C/C=C/Cn1c(NC(=O)c2ncnn2C(C)C)nc2cc(C(N)=O)cc(OCCCO)c21
valueReported: 4.30 to 6.00
--
structureSmiles: CCn1nc(C)cc1C(=O)/N=c1\sc2cc(C(N)=O)cnc2n1C/C=C/Cn1c(NC(=O)c2cc(C)nn2CC)nc2cc(C(N)=O)cc(OCCCO)c21
valueReported: > 6.00

Proceeding to the next compound to report its pEC50.
Challenge: Item: CCn1nc(C)cc1C(=O)Nc1nc2cc(C(N)=O)cnc2n1C/C=C/Cn1c(NC(=O)c2cc(C)nn2CC)nc2cc(C(N)=O)cc(Br)c21 Test system: Human STING (Homo sapiens, UniProt Q86WV6, G230A/H232R/R293Q/R71H) Read-out: pEC50 Value: ?
Response given: > 6.00

---

target: Human STING (Homo sapiens, UniProt Q86WV6, G230A/H232R/R293Q/R71H); test: Activation of human STING signaling in permeabilized THP1 cells, IRF3 induction; conditions: THP1-Dual cells permeabilized with digitonin buffer 30 minutes on ice, then 24 h in RPMI media
experimentalEndpoint: EC50

Some molecules with recorded EC50:
molecule: CCc1nc(C)oc1C(=O)/N=c1\sc2cc(C(N)=O)cc(OC)c2n1C/C=C/Cn1c(NC(=O)c2oc(C)nc2CC)nc2cc(C(N)=O)cc(OCCCO)c21 [compound 63]
EC50: < 1000 nM
--
molecule: Cc1cc(C(=O)Nc2nc3cc(C(N)=O)ccc3n2C/C=C/Cn2c(NC(=O)c3cc(C)on3)nc3cc(C(N)=O)cc(OCCCO)c32)no1 [compound 26]
EC50: < 1000 nM
--
molecule: CCn1nc(C)cc1C(=O)/N=c1\sc2cc(C(N)=O)cc(OC)c2n1C/C=C/Cn1c(NC(=O)c2cc(C)nn2CC)nc2cc(C(N)=O)cc(OCCCO)c21 [compound 65]
EC50: < 1000 nM

Challenge: EC50 lookup needed for COc1cc(C(N)=O)cc2nc(NC(=O)c3cc4ncccc4o3)n(C/C=C/Cn3c(NC(=O)c4cc5ncccc5o4)nc4cc(C(N)=O)cc(OCCCO)c43)c12 [compound 14] , thanks.
Response given: ≥ 50000 nM

Challenge: EC50 lookup needed for COc1cc(C(N)=O)cc2nc(NC(=O)c3nccn3C(C)C)n(C/C=C/Cn3c(NC(=O)c4nccn4C(C)C)nc4cc(C(N)=O)cc(OCCCO)c43)c12 [compound 15] , thanks.
Response given: ≥ 50000 nM

Challenge: EC50 lookup needed for COc1cc(C(N)=O)cc2nc(NC(=O)c3cc(C)no3)n(C/C=C/Cn3c(NC(=O)c4cc(C)no4)nc4cc(C(N)=O)cc(OCCCO)c43)c12 [compound 12] , thanks.
Response given: 1000 to 50000 nM
